# credit: ChEMBL document CHEMBL1143814

experiment: Cmin in HIV infected virological failure patient plasma after 24 hrs; type: ADME, organism-based; conditions: human, read-out: Cmin
Metric: concentration at 24 h (ng/mL)
Dear colleague, please return just the value in ng/mL, with no unit written.

Quote concentration at 24 h reported for CC(C)(C)NC(=O)[C@@H]1C[C@@H]2CCCC[C@@H]2CN1C[C@@H](O)[C@H](Cc1ccccc1)NC(=O)[C@H](CC(N)=O)NC(=O)c1ccc2ccccc2n1 please.
384

* * *

assay: Ratio of Cmin in PBMC cellular compartment to plasma in HIV infected virological failure patient; type: ADME, organism-based; conditions: human, read-out: Cmin_ratio
Metric: Kp
Respond with the number and no other words.

Consider the molecule CC(C)(C)NC(=O)[C@@H]1C[C@@H]2CCCC[C@@H]2CN1C[C@@H](O)[C@H](Cc1ccccc1)NC(=O)[C@H](CC(N)=O)NC(=O)c1ccc2ccccc2n1 . State its measured Kp.
3.01

* * *

test: AUC (0 to 24 hrs) in PBMC cellular compartment of HIV infected patient after 24 hrs; assay type: ADME, organism-based; design: time < 24 hr; conditions: human
Metric: AUC(0-t) at 24 h (µg·h/mL)
Unit µg·h/mL implied. Number only.

Consider the molecule CC(C)(C)NC(=O)[C@@H]1C[C@@H]2CCCC[C@@H]2CN1C[C@@H](O)[C@H](Cc1ccccc1)NC(=O)[C@H](CC(N)=O)NC(=O)c1ccc2ccccc2n1 [SAQUINAVIR] . State its measured AUC(0-t) at 24 h.
99.5

* * *

assay: Elimination half life in HIV infected patient plasma after 24 hrs; format: ADME, organism-based; details: human
Metric: half-life (min)
Just the number please, in min, no unit attached.

Note half-life for the compound shown: CC(C)(C)NC(=O)[C@@H]1C[C@@H]2CCCC[C@@H]2CN1C[C@@H](O)[C@H](Cc1ccccc1)NC(=O)[C@H](CC(N)=O)NC(=O)c1ccc2ccccc2n1
495

* * *

assay: Cmax in HIV infected virological failure patient plasma after 24 hrs; assay type: ADME, organism-based; details: human
Metric: Cmax
Form field: result (number plus unit)

Check the records and state Cmax for CC(C)(C)NC(=O)[C@@H]1C[C@@H]2CCCC[C@@H]2CN1C[C@@H](O)[C@H](Cc1ccccc1)NC(=O)[C@H](CC(N)=O)NC(=O)c1ccc2ccccc2n1 [SAQUINAVIR]
3320 ng/mL

* * *

assay: AUC (0 to 24 hrs) in PBMC cellular compartment of HIV infected virological failure patient; format: ADME, organism-based; set-up: time < 24 hr; conditions: human
Metric: AUC(0-t) at 24 h (µg·h/mL)
Answer format: numeric, µg·h/mL implied, no suffix.

Please list AUC(0-t) at 24 h recorded for the molecule CC(C)(C)NC(=O)[C@@H]1C[C@@H]2CCCC[C@@H]2CN1C[C@@H](O)[C@H](Cc1ccccc1)NC(=O)[C@H](CC(N)=O)NC(=O)c1ccc2ccccc2n1 [SAQUINAVIR]
132

* * *

test: AUC (0 to 24 hrs) in HIV infected patient plasma after 24 hrs; format: ADME, organism-based; set-up: time < 24 hr; settings: human
Metric: AUC(0-t) at 24 h

Find the measured AUC(0-t) at 24 h of CC(C)(C)NC(=O)[C@@H]1C[C@@H]2CCCC[C@@H]2CN1C[C@@H](O)[C@H](Cc1ccccc1)NC(=O)[C@H](CC(N)=O)NC(=O)c1ccc2ccccc2n1 [SAQUINAVIR] and report it.
34300 ng·h/mL

* * *

assay: Cmin in PBMC cellular compartment of HIV infected virological failure patient after 24 hrs; type: ADME, organism-based; settings: human, read-out: Cmin
Metric: concentration at 24 h (ng/mL)
Use ng/mL as the unit, but write only the number.

Indicate its recorded concentration at 24 h; the molecule in question is CC(C)(C)NC(=O)[C@@H]1C[C@@H]2CCCC[C@@H]2CN1C[C@@H](O)[C@H](Cc1ccccc1)NC(=O)[C@H](CC(N)=O)NC(=O)c1ccc2ccccc2n1
1220
